test system: K-562 leukemia; experiment: NCI-60 one-dose screen, 48 h; details: 10 µM unless noted
This is part of a sample that, as a whole, favours compounds with a hit. Of some 83,000 tested, about 20% had one in any assay. Calls of active or inactive are those of the source. Rule for the calls: active = growth percent below 10; inactive = the rest.
Outcome field: choose from TRUE for active, FALSE for inactive

Test call, this compound: CCC1=C[C@H]2CN(CCc3c([nH]c4ccccc34)[C@@](C(=O)OC)(c3cc4c(cc3OC)N(C)[C@H]3[C@@](O)(C(=O)OC)[C@H](OC(C)=O)[C@]5(CC)[C@@H]6C[C@@H]6CN6CC[C@]43[C@@H]65)C2)C1
TRUE

Outcome? COc1cc2nc3c(=O)n(CCN(C)C)cnn3c(=O)c2cc1OC
FALSE

Look up the recorded call for C=C(C)[C@@H]1CC[C@]2(C(=O)N3CCN(C)CC3)CC[C@]3(C)[C@H](CC[C@@H]4[C@@]5(C)C/C(=C/c6ccco6)C(=O)C(C)(C)[C@@H]5CC[C@]43C)[C@@H]12 in this test.
FALSE

Record request — test call for COc1cc(/C=C/C(=O)c2cccs2)ccc1OCc1ccc(Cl)nc1
FALSE

Which outcome was assigned to Nc1ccc(C2=NN(C(=O)c3cc(-c4ccc(Cl)cc4)nc4ccccc34)C(c3ccc(Cl)cc3)C2)cc1 (stereo not given) in this test?
FALSE

Which outcome was entered for the compound COC(=O)[C@]1(C)CCC[C@]2(C)[C@H]3C[C@H]4C(C(C)C)=C[C@]3(CC[C@H]21)[C@@H]1C(=O)N(CCC#N)C(=O)[C@@H]14 in this test?
FALSE

Hi, do you know how CC(C)(C)c1nc2c(s1)c1nc(N)ncc1c1ccc(NS(=O)(=O)c3c(F)cccc3F)c(F)c12 came out in this test?
FALSE

Per the assay record, what outcome was assigned to Cc1c(Cl)cccc1NC(=O)c1sc2nc3c(cc2c1N)COCC3 ?
FALSE

# fetch the recorded call for CCN1CCN(Cc2ccc(NC(=O)c3cccc(C#Cc4cccc5[nH]nc(N)c45)c3)cc2C(F)(F)F)CC1 here
TRUE

Given O=C(O)C(C(=O)O)c1cccc2ccccc12 , state the outcome it received in this test.
FALSE

How did this test come out for Cc1cc(C)c(NC(=O)c2sc3nc4c(cc3c2N)CCCCCC4)c(C)c1 ?
FALSE

// return assay outcome for c1ccc(-c2n(Cc3ccc4ccccc4n3)cc[n+]2Cc2ccc3ccccc3c2)cc1
TRUE

----------
Please go through the items and note down their growth.
system: UACC-257 melanoma; test: NCI-60 one-dose screen, 48 h (100 = growth as untreated, 0 = no growth, -100 = all killed); conditions: 10 µM unless noted
About 83,000 compounds went through this panel and 20% of them were active in at least one assay; those are over-represented in the sample as a whole.
Give bare numbers, in %.

Recorded results for 5 compounds are shown here.
{"columns": ["Compound", "Quantity unit", "growth"],
 "data": [
  ["Cc1nc2sc(C(=O)Nc3ccccc3Cl)c(N)c2cc1C(C)O (stereo unspecified)", "%", 86.5],
  ["C#Cc1ccccc1NC(=O)c1sc2nc3c(cc2c1N)CCCCCC3", "%", 96],
  ["C#Cc1cccc(Nc2ncnc3ccc(NC(=O)c4ccccc4)cc23)c1", "%", 99.6],
  ["S=C(Nc1ccc(Cl)cc1)c1ccccn1", "%", 91.1],
  ["C=C1C(=O)O[C@H]2[C@H]1CC/C(COC(=O)c1cc3ccccc3o1)=C\\CC[C@@]1(C)O[C@@H]21", "%", 40.5]
]}

Here is the next item to consider.
Request the reported growth associated with COc1ccc(C2=NN(c3ccc(S(N)(=O)=O)cc3)C(c3ccc(Cl)cc3)C2)c(O)c1 (stereo unspecified)
57.3
